Catalogue of compounds with associated TD50
assay: in vivo; details: mouse, po

CCCNCC(=O)Nc1ccc(C2NC(=O)C(C(C)C)c3ccccc32)cc1 (centres unmarked) [Example 8] = ~50 mg/kg
CCN(CC)CC(=O)Nc1ccc(C2NC(=O)C(C)(C)c3ccccc32)cc1 (centres unmarked) [Example 16] = ~1300 mg/kg
CC(C)NCC(=O)Nc1ccc(C2NC(=O)C(C)(C)c3ccccc32)cc1 (centres unmarked) [Example 14] = ~1600 mg/kg
CNCC(=O)Nc1ccc(C2NC(=O)C(C)(C)c3ccccc32)cc1 (centres unmarked) [Example 13] = ~800 mg/kg

Read the next record carefully.
query: Data request, read-out TD50, for CCCCNCC(=O)Nc1ccc(C2NC(=O)C(C)(C)c3ccccc32)cc1 (centres unmarked) [Example 15]
result: ~300 mg/kg
